tested target: Voltage-gated potassium channel subunit beta-2 (Rattus norvegicus)
experiment notes: inhibitors of rat Kvbeta2 reductase activity – biochemical, NADPH fluorescence, primary screen (AID 622);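 note: slope of raw intensity against log time taken from 70 to 1610 s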
run conditions: recombinant KvBeta, 4-cyanobenzaldehyde reduction, at 10 µM, active compounds read high
assay readout: fluorescence slope

- compound: "Cc1ccc2c(c1C)NC(C)CC2C (stereo not drawn)"
  result: -0.604
- compound: "CCCN1C(=O)SC(CC(=O)Nc2ccc(Br)cc2)C1=O (stereo not drawn)"
  result: -0.444
- compound: "O=C(CN1CCCN(S(=O)(=O)c2ccc(Br)cc2)CC1)Nc1ccc2cn[nH]c2c1"
  result: -0.517
- compound: "CC(C)c1ccc(NC(=O)C2CC(=O)N(C(C)C)C2)cc1 (stereo not drawn)"
  result: -0.558
- compound: "COc1ccc(OC)c(S(=O)(=O)Nc2ccc(C(N)=O)cc2)c1"
  result: -0.519
- compound: "O=C(Cc1ccc(S(=O)(=O)N2CCCC2)s1)Nc1nc2c(s1)CCCC2"
  result: -0.574
- compound: "CC(=O)Nc1cccc(-c2nnc(-c3ccccc3)o2)c1"
  result: -0.582
- compound: "Clc1ccc(Cn2c(CN3CCCC3)nc3ccccc32)cc1"
  result: -0.551
